The reported numbers originate from paper PMC4172049.

TESTED_TARGET: Human recombinant sPLA2-V (Homo sapiens, UniProt P39877)
Sequence (P39877 21-138): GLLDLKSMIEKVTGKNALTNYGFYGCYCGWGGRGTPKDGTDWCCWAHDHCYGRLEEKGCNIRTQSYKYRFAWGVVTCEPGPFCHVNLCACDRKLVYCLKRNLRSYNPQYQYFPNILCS
PROCEDURE_TEXT: sPLA2-V activity assay
READOUT: IC50 (nM)
Supply the numeric figure in nM, leaving out any unit text.

Q. Return reported IC50. Input compound: `C[C@@H]1C[C@H]2[C@@H]3CCC4=CC(=O)C=C[C@]4(C)[C@@]3(F)[C@@H](O)C[C@]2(C)[C@@]1(O)C(=O)CO`
A. 650
